Target Or Test System: Estrogen receptor (Homo sapiens, UniProt P03372)
Sequence (P03372 whole entry, the tested form may be a part): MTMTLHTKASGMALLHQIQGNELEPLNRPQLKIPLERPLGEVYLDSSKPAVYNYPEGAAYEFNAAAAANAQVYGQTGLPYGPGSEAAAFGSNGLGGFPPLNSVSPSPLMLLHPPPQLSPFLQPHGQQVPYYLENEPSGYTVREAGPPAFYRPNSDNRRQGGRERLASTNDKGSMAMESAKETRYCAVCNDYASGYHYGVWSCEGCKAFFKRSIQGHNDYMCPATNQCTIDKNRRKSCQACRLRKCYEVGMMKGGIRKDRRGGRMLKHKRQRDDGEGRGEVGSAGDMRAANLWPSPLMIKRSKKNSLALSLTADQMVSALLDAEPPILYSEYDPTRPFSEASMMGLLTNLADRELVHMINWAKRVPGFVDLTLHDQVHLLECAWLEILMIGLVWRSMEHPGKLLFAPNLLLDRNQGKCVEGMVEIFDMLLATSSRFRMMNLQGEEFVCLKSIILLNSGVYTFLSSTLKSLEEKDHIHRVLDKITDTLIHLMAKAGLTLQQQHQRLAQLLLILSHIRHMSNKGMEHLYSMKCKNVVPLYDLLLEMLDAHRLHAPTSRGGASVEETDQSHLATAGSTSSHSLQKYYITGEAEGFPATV
Measurement Description: Agonist activity at ERalpha-LBD in human U2OS cells transfected with Gal4-DBD assessed as increase of transactivation activity after 18 hrs by luciferase reporter gene assay
Value Kind: EC50 (nM)

[[record]]
chemical_string = "COc1ccc2c(c1)CC[C@@H]1[C@@H]2CC[C@@]2(C)[C@H]1CC[C@@]2(O)C/C=C/CC(F)(F)C(F)(F)C(F)(F)F"
target_or_test_system = "Estrogen receptor (Homo sapiens, UniProt P03372)"
endpoint_unit = "nM"
value_measured = 1660

[[record]]
chemical_string = "C[C@]12CC[C@@H]3c4ccc(O)cc4CC[C@H]3[C@@H]1CC[C@@]2(O)/C=C/CC(F)(C(F)(F)F)C(F)(F)F"
target_or_test_system = "Estrogen receptor (Homo sapiens, UniProt P03372)"
endpoint_unit = "nM"
value_measured = 9950

[[record]]
chemical_string = "C[C@]12CC[C@@H]3c4ccc(O)cc4CC[C@H]3[C@@H]1CC[C@@]2(O)C/C=C/CC(F)(F)C(F)(F)C(F)(F)F"
target_or_test_system = "Estrogen receptor (Homo sapiens, UniProt P03372)"
endpoint_unit = "nM"
value_measured = 485

[[record]]
chemical_string = "C[C@]12CC[C@@H]3c4ccc(O)cc4CC[C@H]3[C@@H]1CC[C@@]2(O)/C=C/CC(F)(F)C(F)(F)C(F)(F)C(F)(F)C(F)(F)C(F)(F)F"
target_or_test_system = "Estrogen receptor (Homo sapiens, UniProt P03372)"
endpoint_unit = "nM"
value_measured = 2080

[[record]]
chemical_string = "C[C@]12CC[C@@H]3c4ccc(O)cc4CC[C@H]3[C@@H]1CC[C@@]2(O)/C=C/CC(F)(F)C(F)(F)C(F)(F)F"
target_or_test_system = "Estrogen receptor (Homo sapiens, UniProt P03372)"
endpoint_unit = "nM"
value_measured = 35.5

[[record]]
chemical_string = "C[C@]12CC[C@@H]3c4ccc(O)cc4CC[C@H]3[C@@H]1CC[C@@]2(O)C/C=C/CC(F)(F)C(F)(F)C(F)(F)C(F)(F)C(F)(F)C(F)(F)F"
target_or_test_system = "Estrogen receptor (Homo sapiens, UniProt P03372)"
endpoint_unit = "nM"
value_measured = 1030

[[record]]
chemical_string = "COc1ccc2c(c1)CC[C@@H]1[C@@H]2CC[C@@]2(C)[C@H]1CC[C@@]2(O)/C=C/CC(F)(F)C(F)(F)C(F)(F)F"
target_or_test_system = "Estrogen receptor (Homo sapiens, UniProt P03372)"
endpoint_unit = "nM"
value_measured = 4030

[[record]]
chemical_string = "C[C@]12CC[C@@H]3c4ccc(O)cc4CC[C@H]3[C@@H]1CC[C@@]2(O)C/C=C/CC(F)(C(F)(F)F)C(F)(F)F"
target_or_test_system = "Estrogen receptor (Homo sapiens, UniProt P03372)"
endpoint_unit = "nM"
value_measured = 403


###

Some compounds, each annotated with its measured pIC50.
Target Or Test System: Mineralocorticoid receptor (Homo sapiens)
Sequence (P08235 whole entry, the tested form may be a part): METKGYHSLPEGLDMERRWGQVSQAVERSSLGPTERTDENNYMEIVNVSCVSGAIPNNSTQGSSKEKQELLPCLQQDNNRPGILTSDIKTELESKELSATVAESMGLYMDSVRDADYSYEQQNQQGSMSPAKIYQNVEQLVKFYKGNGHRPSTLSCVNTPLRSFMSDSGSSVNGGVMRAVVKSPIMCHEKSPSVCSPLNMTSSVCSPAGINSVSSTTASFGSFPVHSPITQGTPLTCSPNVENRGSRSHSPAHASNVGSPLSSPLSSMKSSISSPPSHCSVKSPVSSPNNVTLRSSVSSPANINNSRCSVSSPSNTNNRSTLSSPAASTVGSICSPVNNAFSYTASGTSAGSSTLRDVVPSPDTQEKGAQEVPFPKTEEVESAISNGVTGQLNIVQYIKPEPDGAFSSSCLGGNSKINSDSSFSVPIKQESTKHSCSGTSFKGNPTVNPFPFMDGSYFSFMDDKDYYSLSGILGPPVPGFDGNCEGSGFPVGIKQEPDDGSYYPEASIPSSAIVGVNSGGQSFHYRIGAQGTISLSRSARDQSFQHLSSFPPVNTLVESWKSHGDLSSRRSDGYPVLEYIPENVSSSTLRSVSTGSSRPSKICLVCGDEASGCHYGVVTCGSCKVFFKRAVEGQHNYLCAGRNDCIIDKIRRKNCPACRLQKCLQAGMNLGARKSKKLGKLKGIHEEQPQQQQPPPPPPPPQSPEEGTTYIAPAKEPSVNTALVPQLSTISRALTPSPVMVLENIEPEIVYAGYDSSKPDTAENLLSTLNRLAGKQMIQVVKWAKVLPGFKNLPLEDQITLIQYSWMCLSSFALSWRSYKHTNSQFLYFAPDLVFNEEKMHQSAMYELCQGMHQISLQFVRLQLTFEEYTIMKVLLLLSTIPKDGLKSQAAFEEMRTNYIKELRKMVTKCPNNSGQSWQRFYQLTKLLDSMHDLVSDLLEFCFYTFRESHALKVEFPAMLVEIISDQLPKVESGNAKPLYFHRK
Measurement Description: Antagonist activity at mineralocorticoid receptor-LBD in human U2OS cells transfected with Gal4-DBD assessed as inhibition of transactivation activity after 18 hrs by luciferase reporter gene assay
Type: functional, cell-based
Condition Label: u2os
Value Kind: pIC50

[[record]]
chemical_string = "COc1ccc2c(c1)CC[C@@H]1[C@@H]2CC[C@@]2(C)[C@H]1CC[C@@]2(O)C/C=C/CC(F)(F)C(F)(F)C(F)(F)F"
value_measured = "> 4.8"

[[record]]
chemical_string = "COc1ccc2c(c1)CC[C@@H]1[C@@H]2CC[C@@]2(C)[C@H]1CC[C@@]2(O)/C=C/CC(F)(F)C(F)(F)C(F)(F)C(F)(F)C(F)(F)C(F)(F)F"
value_measured = "> 4.8"

[[record]]
chemical_string = "COc1ccc2c(c1)CC[C@@H]1[C@@H]2CC[C@@]2(C)[C@H]1CC[C@@]2(O)C/C=C/CC(F)(F)C(F)(F)C(F)(F)C(F)(F)C(F)(F)C(F)(F)F"
value_measured = "> 4.8"

[[record]]
chemical_string = "COc1ccc2c(c1)CC[C@@H]1[C@@H]2CC[C@@]2(C)[C@H]1CC[C@@]2(O)/C=C/CC(F)(F)C(F)(F)C(F)(F)F"
value_measured = "> 4.841"

[[record]]
chemical_string = "C[C@]12CC[C@@H]3c4ccc(O)cc4CC[C@H]3[C@@H]1CC[C@@]2(O)C/C=C/CC(F)(F)C(F)(F)C(F)(F)F"
value_measured = "> 4.901"

